measured-target: T1, PUF4 RNA-binding domain (Saccharomyces cerevisiae, UniProt P25339 537-888)
T1 sequence: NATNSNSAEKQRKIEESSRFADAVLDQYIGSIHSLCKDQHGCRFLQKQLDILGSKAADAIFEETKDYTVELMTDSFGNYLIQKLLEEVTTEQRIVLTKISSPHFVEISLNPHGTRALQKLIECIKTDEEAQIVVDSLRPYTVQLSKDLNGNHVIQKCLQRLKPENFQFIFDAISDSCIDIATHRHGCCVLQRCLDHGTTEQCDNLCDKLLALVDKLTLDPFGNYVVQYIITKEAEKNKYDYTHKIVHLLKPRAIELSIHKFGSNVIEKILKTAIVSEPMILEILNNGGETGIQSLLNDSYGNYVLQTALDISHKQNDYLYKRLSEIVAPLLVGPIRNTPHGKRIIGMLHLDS
experiment-summary: Mg; RNA-MaP; 20 mM Na-HEPES pH 7.4, 30 mM KOAc, 0.75 mM MgCl2, 0.1% Tween-20, 5% glycerol, 0.1 mg/mL BSA, 2 mM DTT; 25 C; 0.0125-409.6 nM protein
condition-label: tags: N-His6-TEV cleaved; C-SNAP kept, Cy3B-labelled; label: tethered on chip by stalled RNA polymerase
Listed next: entries and their corresponding pKd.
pKd is defined as minus the log10 of a concentration measured in mol/L.

Below, each entry is followed by its recorded pKd result.
# binder, result-value
data = [
    ("Ie_S2_P5E.1_K5.1_C5.1_H5.1_A5.1_[+6CCCT]_F5.1_T5.1 (ssRNA) RNA: UUUGAUUAAUAUGAUAUCGUUCUUUCUUGUAUUCCCUAUUAUUCUUUCUCGAUAUCAUAUUAAUCUUU", 7.81),
    ("Ic_S4_P4E.1_K4.1_C4.1_H4.1_A4.1_[A6T]_[T7A]_F4.1_[A9C]_T4.1 (ssRNA) RNA: UUUGACAACUGAUCGUUCUUUCUUGUAUUAUCUUCUUUCUCGAUCAGUUGUCUUU", 7.42),
    ("Id_iii_S2_P5E.5_K5.1_C5.3_H5.1_A5.1_F5.1_T5.2_[T11A] (ssRNA) RNA: UUUGAUUAAUAUGAUAUCGUUCUUUCUUCUUGUAUUAUUAAAUUCUUUCUCGAUAUCAUAUUAAUCUUU", 8.41),
    ("Ib_S4_P4E.1_K4.1_C4.1_H4.1_[A4C]_A4.1_[T5A]_F4.1_T4.1 (ssRNA) RNA: UUUGACAACUGAUCGUUCUUUCUUGUCAAUUAUUCUUUCUCGAUCAGUUGUCUUU", 7.31),
]

The binder identified as ACAAACCUUCCUCGUAUAUAUAACAAAC (ssRNA) [Ie_S3_P3E.2_K3.1_C3.2_H3.1_[+1CCTC]_A3.1_F3.1_T3.2] registered its pKd at 6.25

The binder identified as UCUCUUUCUGUAUAUAACUCUCUU (ssRNA) [Id_ii_S1_P3E.2_K3.1_C3.2_[C-2T]_[T-1C]_H3.1_A3.1_F3.1_T3.2_[T9A]_[A10C]] registered its pKd at 8.26

The binder identified as UCUCUUUGUACUUACGUCUCUU (ssRNA) [Ic_S1_P5E.1_K5.1_C5.1_H5.1_A5.1_[T5C]_[A7T]_F5.1_[T8A]_[T9C]_[A10G]_T5.1] registered its pKd at 6.30

The binder identified as ACAAACUGUAUAUUCCCUAACAAAC (ssRNA) [Ie_S3_P4E.1_K4.1_C4.1_H4.1_A4.1_F4.1_[+8CCCT]_T4.1] registered its pKd at 8.18

The binder identified as UCUCUUACUGUAUAUUAUCUCUCUU (ssRNA) [Id_ii_S1_P4E.2_K4.1_C4.2_[C-2A]_[T-1C]_H4.1_A4.1_F4.1_T4.2_[G10T]_[T11C]] registered its pKd at 8.85

The binder identified as Ie_S2_P3E.2_K3.1_C3.2_H3.1_[+3CTCTC]_A3.1_F3.1_T3.2 (ssRNA) RNA: UUUGAUUAAUAUGAUAUCGUUCUUUCUCUUGUCUCUCAUAUAUAUUCUUUCUCGAUAUCAUAUUAAUCUUU registered its pKd at 7.12

The binder identified as ACAAACUGUAUUAUUUCCUAACAAAC (ssRNA) [Ie_S3_P5E.1_K5.1_C5.1_H5.1_A5.1_F5.1_[+8TTCC]_T5.1] registered its pKd at 7.66

The binder identified as Ic_S4_P4E.1_K4.1_C4.1_H4.1_A4.1_[T5A]_[T7A]_F4.1_[T8C]_[A9T]_T4.1 (ssRNA) RNA: UUUGACAACUGAUCGUUCUUUCUUGUAAAACUUUCUUUCUCGAUCAGUUGUCUUU registered its pKd at 6.59
